Source of measurements: ChEMBL document CHEMBL1158581

- experimental_target: Adenosine receptors; A1 & A3 (Homo sapiens) (UniProt P30542+P0DMS8)
- Sequence (P0DMS8 whole entry, looked up): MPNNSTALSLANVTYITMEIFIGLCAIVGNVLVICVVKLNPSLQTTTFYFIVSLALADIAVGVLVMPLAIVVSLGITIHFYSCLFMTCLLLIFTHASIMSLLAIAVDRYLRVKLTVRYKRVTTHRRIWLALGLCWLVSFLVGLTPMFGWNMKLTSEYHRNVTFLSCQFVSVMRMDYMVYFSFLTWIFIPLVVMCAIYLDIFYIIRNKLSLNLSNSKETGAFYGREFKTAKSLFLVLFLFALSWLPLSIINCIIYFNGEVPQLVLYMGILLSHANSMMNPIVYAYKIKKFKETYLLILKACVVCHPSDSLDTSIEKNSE
- Sequence (P30542 whole entry, looked up): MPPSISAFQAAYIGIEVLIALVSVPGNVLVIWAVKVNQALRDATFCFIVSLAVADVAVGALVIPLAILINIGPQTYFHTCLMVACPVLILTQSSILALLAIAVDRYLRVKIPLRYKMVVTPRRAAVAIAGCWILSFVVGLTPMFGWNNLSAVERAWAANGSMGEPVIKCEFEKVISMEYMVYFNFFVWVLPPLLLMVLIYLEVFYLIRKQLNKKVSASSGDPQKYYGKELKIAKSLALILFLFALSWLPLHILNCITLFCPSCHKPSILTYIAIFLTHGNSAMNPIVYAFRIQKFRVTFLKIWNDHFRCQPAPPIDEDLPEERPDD
- method_summary: Selectivity ratio of Ki for human recombinant adenosine A1 receptor to Ki for human recombinant adenosine A3 receptor
Form field: Ratio Ki (one value per entry).

The following compounds have reported results that may help.
> print(dat)
                                   compound                       experimental.target  measurement.label  result
1  CC1(C)CC(CNc2ncnc3c2ncn3[C@@H]2O[C@H](CO)[C@@H](O)[C@H]2O)C(C)(C)N1[O] (stereo partly drawn)  Adenosine receptors; A1 & A3 (Homo sapiens) (UniProt P30542+P0DMS8)           Ratio Ki  0.0024
2  CNC(=O)[C@H]1O[C@@H](n2cnc3c(Nc4ccc(CCNC(=O)c5cc(C(C)(C)C)cc(C(C)(C)C)c5)cc4)ncnc32)[C@H](O)[C@@H]1O  Adenosine receptors; A1 & A3 (Homo sapiens) (UniProt P30542+P0DMS8)           Ratio Ki     109

Consider the additional compound presented here.
Using the record for CNC(=O)[C@H]1O[C@@H](n2cnc3c(Nc4ccc(CCNC(=O)c5ccc6c(c5)C(C)(C)N([O])C6(C)C)cc4)ncnc32)[C@H](O)[C@@H]1O , report its Ratio Ki. 2.1
